Give phosphorylation enrichment for every item shown.
- TARGET_UNDER_TEST: EPHB2 (UniProt P29323)
- Sequence (P29323 whole entry, looked up): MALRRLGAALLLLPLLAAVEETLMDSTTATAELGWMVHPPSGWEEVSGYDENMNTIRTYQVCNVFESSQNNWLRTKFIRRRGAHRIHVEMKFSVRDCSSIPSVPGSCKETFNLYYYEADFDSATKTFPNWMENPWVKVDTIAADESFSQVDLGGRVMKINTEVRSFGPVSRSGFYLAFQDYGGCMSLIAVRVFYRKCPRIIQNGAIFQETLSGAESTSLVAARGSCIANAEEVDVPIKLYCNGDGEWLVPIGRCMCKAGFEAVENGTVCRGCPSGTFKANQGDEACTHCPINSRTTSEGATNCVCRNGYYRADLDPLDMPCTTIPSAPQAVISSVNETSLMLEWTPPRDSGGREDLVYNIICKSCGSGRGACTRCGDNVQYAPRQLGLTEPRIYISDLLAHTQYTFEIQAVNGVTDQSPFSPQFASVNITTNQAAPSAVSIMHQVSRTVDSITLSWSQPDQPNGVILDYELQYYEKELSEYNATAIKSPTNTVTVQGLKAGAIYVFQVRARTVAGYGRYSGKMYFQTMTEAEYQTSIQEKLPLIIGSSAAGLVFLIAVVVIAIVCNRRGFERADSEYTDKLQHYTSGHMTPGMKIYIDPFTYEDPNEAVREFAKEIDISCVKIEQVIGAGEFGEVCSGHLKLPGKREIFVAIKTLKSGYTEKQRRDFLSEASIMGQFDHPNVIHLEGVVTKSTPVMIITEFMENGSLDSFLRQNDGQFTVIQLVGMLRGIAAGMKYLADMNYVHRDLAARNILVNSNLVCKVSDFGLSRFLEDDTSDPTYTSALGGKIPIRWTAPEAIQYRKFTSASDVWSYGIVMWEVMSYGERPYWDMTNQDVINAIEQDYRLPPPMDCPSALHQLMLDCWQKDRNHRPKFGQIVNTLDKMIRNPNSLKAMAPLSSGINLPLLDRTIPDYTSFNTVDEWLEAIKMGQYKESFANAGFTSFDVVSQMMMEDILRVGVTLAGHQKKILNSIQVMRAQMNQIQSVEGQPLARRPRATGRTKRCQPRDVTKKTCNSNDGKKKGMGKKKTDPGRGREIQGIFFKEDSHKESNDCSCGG
- RUN_DESCRIPTION: phosphorylation enrichment, bacterial display (enrichment ratio); higher = better substrate or ligand; peptides without Tyr show the background
// response body must contain only the number

Record ERPGVYTNVVE [F11_Y608] . Reported phosphorylation enrichment: 0.423

Sure, the documented phosphorylation enrichment for QQLVAYFSKHT [SRC_Y232_A237T_YF] is 0.724

// sample PLQKTYNYNVL [SLC4A1_Y553] , its phosphorylation enrichment was 0.689

Entry under test: HVIKLFGACSQ [RET_Y791_Y791F] . Its phosphorylation enrichment was 0.995

Record GGTTLYPGIAD [ACTC1_Y308_M307L] , field phosphorylation enrichment: 0.531

Sample HYECKYVINAI [MAOA_Y268] ; phosphorylation enrichment observed: 0.788

GET /value?item= VTVLDYDKIGK [SYT1_Y365] &field=phosphorylation enrichment returns 0.541

Reported phosphorylation enrichment of RLLVLYPWTQR [HBB_Y36_V35L] : 0.98

The reported phosphorylation enrichment of the sequence PVRIAYGRPRG [SUGP2_Y985_D986G] was 0.493

# sequence VRRVGYVSGWG [HP_Y280_G276R] ; its phosphorylation enrichment = 0.423

Reported phosphorylation enrichment of QKFMAYPSQGG [HLCS_Y236_L237P] : 0.525

GET /value?item= RTLIRYAKLGN [BEST1_Y131_N133K] &field=phosphorylation enrichment returns 0.775

Record summary for NTCNRYCRDEI [ITGB3_Y660] : reported phosphorylation enrichment = 0.427

phosphorylation enrichment for CTTSHYNFMCN [TP53_Y234_I232S_YF] is 0.533

###

- TARGET_UNDER_TEST: SHP2-C SH2;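 also: peptide library displayed on the E. coli surface as eCPX fusions, selected cells deep-sequenced, score is each peptide's frequency after selection divided by its frequency in the input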
- RUN_DESCRIPTION: SH2 binding enrichment of the phosphorylated peptide, bacterial display (enrichment ratio); higher = better substrate or ligand; peptides without Tyr show the background
OBSERVATION_TYPE: SH2 binding enrichment
Number only, please.

Fill in: SHP2-C SH2 SH2 binding enrichment for TRGLEYIVPLM [CLCN4_Y548_G544R] = 0.707

Note to self: SH2 binding enrichment of LKALKYKSMKI [ITGA11_Y1098] with SHP2-C SH2 was 0.876

# value of SH2 binding enrichment, SHP2-C SH2, item LARDMCDKEFF [MET_Y1230_Y1230C_YF] = 0.676

Param item: QQLVAYFSKHT [SRC_Y232_A237T_YF] ; param system: SHP2-C SH2; output SH2 binding enrichment: 1.08

Tested on SHP2-C SH2: TRSFDYMEGED [FGF7_Y58_G62E_YF] . Observed SH2 binding enrichment: 0.589

Query TGILLYGLASR [QARS1_Y57] on SHP2-C SH2; SH2 binding enrichment returned: 0.803

SH2 binding enrichment on SHP2-C SH2 for ENAGFYFRVSA is 0.738

The reported SH2 binding enrichment value, SHP2-C SH2, for NHQYDYTFHWT [CSNK1A1_Y294_D297H] reads 0.938

Fill in: SHP2-C SH2 SH2 binding enrichment for DTCPPYVLSQV [GJB4_Y237_G242V] = 0.797

Fill in: SHP2-C SH2 SH2 binding enrichment for QSSALYEDRFL [ASS1_Y83_YF] = 0.471

SH2 binding enrichment on SHP2-C SH2 for LTGIAYGLPHW [SLC22A14_Y291_S292G] is 1.23

// sequence NPSYNYEIVNQ [DYNC1H1_Y3379_R3384Q] , assay SHP2-C SH2, SH2 binding enrichment value: 0.348

Readout SH2 binding enrichment for PELIDYGKLRK [ACTN1_Y193] , test system SHP2-C SH2, was 0.6

Observed SH2 binding enrichment, SHP2-C SH2, EVDGLYREAPI [MYL12B_Y143_E141G] : 1.07
